Test system: HT-29
Test: SRB colorimetric assay of cell growth and viability, HT-29
Type: cell-based, human
Details: 48 hours exposure; read-out: LC50 HT-29
Where a SMILES comes first, the peptide text is derived from it. Bridges are numbered along the chain shown (N, C = ends). [ ]: non-standard residue; d: D form. The star is where a group is joined. d(aIle) = CC[C@H](C)[C@@H](N)C(=O)O; d(aThr) = C[C@@H](O)[C@@H](N)C(=O)O; Myristoyl = CCCCCCCCCCCCCC(=O)*; Orn = NCCC[C@H](N)C(=O)O; Dhb = C/C=C(\N)C(=O)O
Binarize CC50 at 7 µM; below is yes (1), at or above is no (0).

Data request: Quick check: does C/C=C1\NC(=O)[C@H](Cc2ccccc2)NC(=O)[C@@H](C(C)C)NC(=O)[C@@H]([C@@H](C)CC)NC(=O)[C@H](NC(=O)[C@H](NC(=O)[C@H](CCCN)NC(=O)[C@H]2CCCN2C(=O)[C@H](NC(=O)[C@@H](NC(=O)[C@@H](NC(=O)[C@H](NC(=O)c2ccc(C(F)(F)F)cc2)C(C)C)[C@@H](C)O)C(C)C)C(C)C)[C@@H](C)CC)[C@@H](C)OC(=O)[C@H](C(C)C)NC1=O [Compound 21, [p-CF3Bza^14]-KF] have CC50 under 7 µM?
Data returned: yes (1)

Data request: Decide: CC50 of C/C=C1\NC(=O)[C@H](Cc2ccccc2)NC(=O)[C@@H](C(C)C)NC(=O)[C@@H]([C@@H](C)CC)NC(=O)[C@H](NC(=O)[C@H](NC(=O)[C@H](CCCN)NC(=O)[C@H]2CCCN2C(=O)[C@H](NC(=O)[C@@H](NC(=O)[C@@H](NC(=O)[C@@H](CC(C)C)NC(=O)CCCC(C)C)[C@@H](C)O)C(C)C)C(C)C)[C@@H](C)CC)[C@@H](C)OC(=O)[C@H](C(C)C)NC1=O [Compound 35, [D-Leu^13]-KF] strictly below 7 µM?
Data returned: yes (1)

Data request: Quick check: does C/C=C1\NC(=O)[C@H](Cc2ccccc2)NC(=O)[C@@H](C(C)C)NC(=O)[C@@H]([C@@H](C)CC)NC(=O)[C@H](NC(=O)[C@H](NC(=O)[C@H](CCCN)NC(=O)[C@H]2CCCN2C(=O)[C@H](NC(=O)CCCCCCCCCCCCC)C(C)C)[C@@H](C)CC)[C@@H](C)OC(=O)[C@H](C(C)C)NC1=O [Compound 32] (Myristoyl-[dV][dP][Orn][d(aIle)][d(aThr)][d(aIle)][dV]F[Dhb]V; ester 5-C) have CC50 under 7 µM?
Data returned: no (0)

Data request: Strictly below 7 µM: is that where CC50 of C/C=C1\NC(=O)[C@H](Cc2ccccc2)NC(=O)[C@@H](C(C)C)NC(=O)[C@@H]([C@@H](C)CC)NC(=O)[C@H](NC(=O)[C@H](NC(=O)[C@H](CCCN)NC(=O)[C@H]2CCCN2C(=O)[C@H](NC(=O)[C@@H](NC(=O)[C@@H](NC(=O)[C@H](NC(=O)c2ccc3c(c2)OCO3)C(C)C)[C@@H](C)O)C(C)C)C(C)C)[C@@H](C)CC)[C@@H](C)OC(=O)[C@H](C(C)C)NC1=O [Compound 23, [Pipe^14]-KF] sits?
Data returned: yes (1)

Data request: A record lists C/C=C1\NC(=O)[C@H](Cc2ccccc2)NC(=O)[C@@H](C(C)C)NC(=O)[C@@H]([C@@H](C)CC)NC(=O)[C@H](NC(=O)[C@H](NC(=O)[C@H](CCCN)NC(=O)[C@H]2CCCN2C(=O)[C@H](NC(=O)[C@@H](NC(=O)[C@@H](NC(=O)[C@H](NC(=O)CCCNC(=N)N)C(C)C)[C@@H](C)O)C(C)C)C(C)C)[C@@H](C)CC)[C@@H](C)OC(=O)[C@H](C(C)C)NC1=O [Compound 29, [4-GuBut^14]-KF] . Is its CC50 below 7 µM?
Data returned: yes (1)

The measurements presented in this section are drawn from patent US20070117743A1.
